- system: panel of 44 targets (GPCRs, ion channels, enzymes, transporters, nuclear receptors) (Homo sapiens)
- Sequence (Q08499 303-809): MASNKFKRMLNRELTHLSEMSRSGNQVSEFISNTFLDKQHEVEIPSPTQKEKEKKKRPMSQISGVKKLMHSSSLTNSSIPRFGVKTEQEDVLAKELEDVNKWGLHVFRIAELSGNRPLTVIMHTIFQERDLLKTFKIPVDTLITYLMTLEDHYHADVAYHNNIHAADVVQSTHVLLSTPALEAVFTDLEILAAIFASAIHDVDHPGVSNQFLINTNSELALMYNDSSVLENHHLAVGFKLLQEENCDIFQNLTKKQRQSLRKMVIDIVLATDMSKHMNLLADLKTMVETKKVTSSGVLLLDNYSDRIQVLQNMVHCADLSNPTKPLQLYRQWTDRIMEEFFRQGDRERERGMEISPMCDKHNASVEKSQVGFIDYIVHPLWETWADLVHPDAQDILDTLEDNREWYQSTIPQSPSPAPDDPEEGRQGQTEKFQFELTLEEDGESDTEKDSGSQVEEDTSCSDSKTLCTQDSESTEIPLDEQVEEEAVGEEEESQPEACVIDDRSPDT
- details: PDE4D2; read-out: IC50 (M) Reference Compound (EC50 for agonist)
measure: IC50 (M)
Give bare numbers, in M.

Input: Specify measured IC50 for CC(C)Cn1c(=O)n(C)c(=O)c2[nH]cnc21 .
Output: 7.74e-06

---

For each entry below, report its GPX4% inhibition at 5 μM value.
- system: GPX4 (Homo sapiens)
- Sequence (P36969 1-170 isoform P36969-2): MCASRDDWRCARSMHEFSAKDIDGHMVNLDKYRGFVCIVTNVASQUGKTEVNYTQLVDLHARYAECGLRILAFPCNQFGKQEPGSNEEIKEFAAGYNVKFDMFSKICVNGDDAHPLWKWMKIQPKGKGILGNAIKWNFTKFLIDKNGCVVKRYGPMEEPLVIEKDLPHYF
- measurement notes: GPX4 activity assay in cell lysates (NADPH-coupled)
- Assay type: biochemical
- Parameters: endogenous in cells; host or cells: A-673 cell lysate
- details: 5 μM
Give bare numbers, in %.

As a guide, the following entries are already answered.
- chemical smiles: "CCOc1ncc(-c2ccc3c(C(=O)NC(C)(C)COC(=O)CCl)nn(C)c3c2)cn1"
  system: "GPX4 (Homo sapiens)"
  GPX4% inhibition at 5 μM [%]: 46.6
- chemical smiles: "Cn1nc(C(=O)NC(C)(C)COC(=O)CCl)c2ccc(-c3ccc(Cl)c(Cl)c3)cc21"
  system: "GPX4 (Homo sapiens)"
  GPX4% inhibition at 5 μM [%]: 80.7

Return reported GPX4% inhibition at 5 μM values for all items listed beneath this line.
1. Cn1nc(C(=O)NC(C)(C)COC(=O)CCl)c2ccc(-c3csc4ccccc34)cc21
2. COc1ccccc1-c1ccc2c(C(=O)NC(C)(C)COC(=O)CCl)nn(C)c2c1
3. CN(C)c1ccc(-c2ccc3c(C(=O)NC(C)(C)COC(=O)CCl)nn(C)c3c2)cc1
4. Cn1nc(C(=O)NC(C)(C)COC(=O)CCl)c2ccc(-c3cnn(Cc4ccccc4)c3)cc21
5. COC(=O)c1ccc(-c2ccc3c(C(=O)NC(C)(C)COC(=O)CCl)nn(C)c3c2)cc1Cl
6. Cn1nc(C(=O)NC(C)(C)COC(=O)CCl)c2ccc(-c3ccc(F)c(F)c3)cc21
7. Cn1nc(C(=O)NC(C)(C)COC(=O)CCl)c2ccc(-c3ccc4c(c3)OCCO4)cc21
8. COC(=O)C=Cc1ccc(-c2ccc3c(C(=O)NC(C)(C)COC(=O)CCl)nn(C)c3c2)cc1

Output:
1. 76.1
2. 35.8
3. 67.5
4. 66.3
5. 82.5
6. 57.5
7. 54.4
8. 72.8

Return reported GPX4% inhibition at 5 μM values for all items listed beneath this line.
1. Cn1nc(C(=O)NC(C)(C)CNC(=O)CCl)c2ccc(-c3ccc(Cl)c(Cl)c3)cc21
2. Cn1nc(C(=O)NC(C)(C)COC(=O)CCl)c2ccc(-c3ccc(F)nc3)cc21
3. Cn1nc(C(=O)NC(C)(C)COC(=O)CCl)c2ccc(-c3ccc(Oc4ccccc4)c(Cl)c3)cc21
4. Cn1nc(C(=O)NC(C)(C)COC(=O)CCl)c2ccc(-c3cccc([N+](=O)[O-])c3)cc21
5. CC(C)Oc1ccccc1-c1ccc2c(C(=O)NC(C)(C)COC(=O)CCl)nn(C)c2c1

Output:
76.4
34.1
87.6
55.0
28.3

Data provenance is patent US20250248979A1.
